- study.target: P. falciparum apicoplast DNA polymerase (Pf-apPOL) (Plasmodium falciparum)
- experimental.protocol: Fluorescence-based high-throughput DNA polymerase assay (molecular beacon), primary screen and dose-response
- Format: biochemical
- condition.description: DRC-2; 5'; concentration 10
measurement.name: % inhibition Apo pol 5' (%)
Output spec: scalar in %, unitless text.

Q: Could you share which % inhibition Apo pol 5' value was measured for O=C1NCCCn2cc(S(=O)(=O)Nc3ccccc3)cc21 [KU0214835] ?
A: 25

Q: Could you do the same for N#Cc1c(O)nc(N2CCCCC2)nc1-c1ccc2c(c1)OCO2 [KU0083146] , please?
A: 33

Q: Could you do the same for N#Cc1c(C2CCCCC2)nc(Sc2ccc(C(F)(F)F)cc2[N+](=O)[O-])[nH]c1=O [Molecule 20] , please?
A: 43

Q: Could you do the same for CCCCc1ccc(NC(=O)CSc2nc(O)c(C#N)c(C3CCCCC3)n2)c(C)c1 [Molecule 8] , please?
A: 12

---

- study.target: P. falciparum apicoplast DNA polymerase (Pf-apPOL) (Plasmodium falciparum, UniProt Q8ILY1)
- Sequence (Q8ILY1 entry or part of it): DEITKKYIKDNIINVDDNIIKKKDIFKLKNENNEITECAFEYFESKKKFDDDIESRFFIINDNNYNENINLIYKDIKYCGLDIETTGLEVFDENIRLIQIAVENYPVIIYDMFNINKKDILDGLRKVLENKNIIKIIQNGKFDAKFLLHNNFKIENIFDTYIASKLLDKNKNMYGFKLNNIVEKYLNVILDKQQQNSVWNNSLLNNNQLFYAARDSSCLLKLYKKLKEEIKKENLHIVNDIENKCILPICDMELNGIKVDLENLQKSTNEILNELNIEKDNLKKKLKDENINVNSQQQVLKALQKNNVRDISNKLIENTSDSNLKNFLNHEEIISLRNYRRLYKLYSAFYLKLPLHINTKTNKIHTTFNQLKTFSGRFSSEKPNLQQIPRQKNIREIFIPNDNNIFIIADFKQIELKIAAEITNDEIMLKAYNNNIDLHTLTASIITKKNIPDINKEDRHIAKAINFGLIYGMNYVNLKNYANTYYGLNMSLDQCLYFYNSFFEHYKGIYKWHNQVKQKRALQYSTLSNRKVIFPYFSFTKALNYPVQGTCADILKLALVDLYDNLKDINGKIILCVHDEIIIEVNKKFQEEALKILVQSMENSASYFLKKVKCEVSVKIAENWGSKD
- experimental.protocol: Fluorescence-based high-throughput DNA polymerase assay (molecular beacon), primary screen and dose-response;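 as to % inhibition Apol 40': compound concentration given in µM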
- Type: biochemical
- condition.description: DRC-2; 40'; concentration 40
Label rule met when % inhibition Apol 40' is at or above 60%; otherwise label rule not met.

Q: Hi team, for O=C(CCc1csc(NC(=O)Nc2ccccc2)n1)Nc1nc2ccccc2s1 [KU0177354] , is the recorded % inhibition Apol 40' at or above 60%?
A: rule not met

Q: Could you do the same for COc1ccc(C(=O)N2CCc3c(nc4cc(-c5ccccc5Cl)[nH]n4c3=O)C2)cn1 [Molecule 26] , please?
A: rule met

Q: Could you do the same for Cc1cccc2c(C(=O)NC(C)C)cc(N(C)C)nc12 [Molecule 47, CC(NC(=O)c1cc(nc2c1cccc2C)N(C)C)C] , please?
A: rule met

Q: Could you do the same for O=C1NCCCn2cc(S(=O)(=O)Nc3ccccc3)cc21 [KU0214835] , please?
A: rule met

Q: Could you do the same for COc1ccc(C=C2Oc3c(ccc4c3CN(c3ccc5c(c3)OCO5)CO4)C2=O)cc1OC [KU0199426] , please?
A: rule not met

Q: Could you do the same for Oc1cccc2ccc(/C=C/c3ccc4c(c3)OCO4)nc12 [KU0025984] , please?
A: rule met

Q: Could you do the same for Cc1cc(C)cc(-n2nc3c(c2NC(=O)c2ccco2)CSC3)c1 [KU0055926] , please?
A: rule met

Q: Could you do the same for Cc1cccc(CC(=O)N2CCc3c(nc4cc(-c5ccccc5)[nH]n4c3=O)C2)c1 [Molecule 12] , please?
A: rule met

Q: Could you do the same for Cc1ccc(NC(=O)Cn2ccc3c(=O)[nH]ccc32)cc1F [Molecule 48, O=C(Cn1ccc2c1cc[nH]c2=O)Nc1ccc(c(c1)F)C] , please?
A: rule met

---

- study.target: P. falciparum apicoplast DNA polymerase (Pf-apPOL) (Plasmodium falciparum)
- experimental.protocol: Fluorescence-based high-throughput DNA polymerase assay (molecular beacon), primary screen and dose-response
- Assay type: biochemical
- condition.description: DRC-1; 10'; concentration 2.5
Could you please report measured % inhibition Apo pol 10' for the items listed next?
Output spec: scalar in %, unitless text.

Q: Requested read-out % inhibition Apo pol 10', target or system P. falciparum apicoplast DNA polymerase (Pf-apPOL) (Plasmodium falciparum), entry CC(=O)Nc1cc(C(=O)NC(C)C)c2ccc(C)nc2c1 [KU0206312]
A: -0.09953

Q: Could you do the same for O=C(NCC1CCN(C2CCCC2)CC1)C(=O)NC1CCCC1 [KU0199596] , please?
A: 0.01298

Q: Could you do the same for CCCCCCCCCCCC1SCC(C(=O)O)N1C(C)=O (stereo not drawn) [Molecule 72] , please?
A: 3.482

Q: Could you do the same for Cc1ccc(C(=O)/C=C/C=C/C=C/N(C)C)o1 [Molecule 96, CN(/C=C/C=C/C=C/C(=O)c1ccc(o1)C)C] , please?
A: 21.8998

Q: Could you do the same for Cc1nc(/N=N/c2ccc(C(=O)[O-])cc2)c(COP(=O)([O-])[O-])c(C=O)c1O.[Na+].[Na+].[Na+] [KU0261395] , please?
A: 68.7077

Q: Could you do the same for O=c1cc(-c2ccccc2Cl)oc2c(NS(=O)(=O)c3cc(Cl)cc(Cl)c3O)ccc(O)c12 [KU0104277] , please?
A: -4.204

Q: Could you do the same for Cc1ncc(CSc2nc(C(C)(C)C)cs2)c(CO)c1O [KU0264007] , please?
A: 0.8986

Q: Could you do the same for CN1CC(=Cc2ccco2)C(=O)C(=Cc2ccco2)C1 [Molecule 65, CN1CC(=Cc2ccco2)C(=O)C(=Cc2ccco2)C1] , please?
A: 22.1284

Q: Could you do the same for CCOC(=O)C1=C2c3cc(OC)c(OC)cc3CC(C)(C)N2C(=O)C1=O [KU0193659] , please?
A: 0.5902

Q: Could you do the same for CS(=O)(=O)c1cccc(C(=O)Nc2nnc(-c3ccno3)o2)c1 [KU0171319] , please?
A: 6.657

Q: Could you do the same for O=C1C(=Cc2ccncc2)Oc2c1ccc1c2CN(Cc2ccc3c(c2)OCO3)CO1 [KU0199357] , please?
A: -2.582

Q: Could you do the same for Cn1nc(C(=O)N2CCc3c(nc4cc(-c5ccccc5)[nH]n4c3=O)C2)c2ccccc21 [Molecule 18] , please?
A: 9
